Where do these numbers come from? They come from patent US20190248900A1.

Some binders, each annotated with its measured OD490.
tested-system: T1, M1
T1 construct: also called PD1 mutant M1
method-notes: ELISA, 1 ug/ml
I'd appreciate a reply containing only the number, no unit.

PD1-49A2 (antibody, V domains shown, scFv-phage in the screening ELISA; whole IgG in the other assays; also called Parent 49A2) VH: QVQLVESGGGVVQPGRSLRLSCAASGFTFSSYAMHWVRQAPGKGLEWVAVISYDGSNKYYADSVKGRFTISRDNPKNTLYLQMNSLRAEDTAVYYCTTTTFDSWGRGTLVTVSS VL: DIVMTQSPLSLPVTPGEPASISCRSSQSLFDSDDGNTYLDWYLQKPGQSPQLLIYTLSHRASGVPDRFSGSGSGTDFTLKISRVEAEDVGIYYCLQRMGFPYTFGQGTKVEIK: 3
PD1-41C9 (antibody, V domains shown, scFv-phage in the screening ELISA; whole IgG in the other assays) VH: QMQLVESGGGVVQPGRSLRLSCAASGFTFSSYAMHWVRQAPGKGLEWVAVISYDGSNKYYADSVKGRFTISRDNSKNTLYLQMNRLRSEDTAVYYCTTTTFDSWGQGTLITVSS VL: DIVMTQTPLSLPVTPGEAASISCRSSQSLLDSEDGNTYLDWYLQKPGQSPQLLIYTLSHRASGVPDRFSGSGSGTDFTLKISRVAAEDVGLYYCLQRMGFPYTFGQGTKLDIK: 3.2
PD1-52E8 (antibody, V domains shown, scFv-phage in the screening ELISA; whole IgG in the other assays) VH: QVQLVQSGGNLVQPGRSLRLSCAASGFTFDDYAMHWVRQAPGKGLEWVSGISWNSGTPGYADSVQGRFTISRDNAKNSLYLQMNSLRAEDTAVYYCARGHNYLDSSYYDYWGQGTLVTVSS VL: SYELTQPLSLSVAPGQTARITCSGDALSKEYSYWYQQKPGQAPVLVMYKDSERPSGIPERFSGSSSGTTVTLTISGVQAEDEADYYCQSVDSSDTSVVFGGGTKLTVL: 1.4

Moving on to the next binder.
Exercise: Fill in: OD490 of PD1-45D6 (antibody, V domains shown, scFv-phage in the screening ELISA; whole IgG in the other assays) VH: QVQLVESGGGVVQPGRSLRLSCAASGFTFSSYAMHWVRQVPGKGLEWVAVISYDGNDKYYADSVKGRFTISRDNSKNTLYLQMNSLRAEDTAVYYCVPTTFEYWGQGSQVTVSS VL: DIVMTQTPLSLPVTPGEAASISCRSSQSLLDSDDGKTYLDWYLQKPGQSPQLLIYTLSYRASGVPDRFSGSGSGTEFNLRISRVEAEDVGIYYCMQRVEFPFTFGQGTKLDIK is ___
Key: 4
